protocolText: Pharmacokinetics of GQD constituents in the portal vein of mice after oral GQD
Type: in vivo, Kunming mice
experimentalConditions: both, Kunming, mouse; portal vein plasma, mice, oral GQD extract 6.1 g/kg; read-out: T1/2 (converted)
observedProperty: half-life (h)

compound	observedProperty	endpointResult
COc1ccc2cc3[n+](cc2c1O)CCc1cc2c(cc1-3)OCO2 [Berberrubine, berberrubine]	half-life	5.1
O=C(O)[C@H]1O[C@@H](Oc2cc3oc(-c4ccccc4)cc(=O)c3c(O)c2O)[C@H](O)[C@@H](O)[C@@H]1O [Baicalin, baicalin]	half-life	2
CC1(C)[C@@H](O[C@H]2O[C@H](C(=O)O)[C@@H](O)[C@H](O)[C@H]2O[C@@H]2O[C@H](C(=O)O)[C@@H](O)[C@H](O)[C@H]2O)CC[C@]2(C)[C@H]3C(=O)C=C4[C@@H]5C[C@@](C)(C(=O)O)CC[C@]5(C)CC[C@@]4(C)[C@]3(C)CC[C@@H]12 [Glycyrrhizic acid, glycyrrhizic acid]	half-life	2.9

* * *

Reported values of MRT for individual entries
protocolText: Pharmacokinetics/tissue distribution of GQD constituents in the livers of mice after oral GQD
Format: in vivo, Kunming mice
experimentalConditions: both, Kunming, mouse, liver (homogenate); liver, mice, oral GQD extract 6.1 g/kg

compound	MRT [h]
COc1ccc2cc3[n+](cc2c1OC)CCc1cc2c(cc1-3)OCO2 [Berberine, berberine]	8.3
COc1cc2c(cc1O)CC[n+]1cc3c(OC)c(OC)ccc3cc1-2 [Jatrorrhizine, jatrorrhizine]	6.6
COc1c(O)cc(O)c2c(=O)cc(-c3ccccc3)oc12 [Wogonin, wogonin]	5
O=c1c(-c2ccc(O)cc2)coc2c([C@@H]3O[C@H](CO)[C@@H](O)[C@H](O)[C@H]3O)c(O)ccc12 [Puerarin, puerarin]	3.8
O=C(O)[C@H]1O[C@@H](Oc2cc3oc(-c4ccccc4)cc(=O)c3c(O)c2O)[C@H](O)[C@@H](O)[C@@H]1O [Baicalin, baicalin]	3.7
CC1(C)[C@@H](O)CC[C@]2(C)[C@H]3C(=O)C=C4[C@@H]5C[C@@](C)(C(=O)O)CC[C@]5(C)CC[C@@]4(C)[C@]3(C)CC[C@@H]12 [Glycyrrhetinic acid, glycyrrhetinic acid]	8.6
COc1ccc2cc3[n+](cc2c1O)CCc1cc2c(cc1-3)OCO2 [Berberrubine, berberrubine]	11

* * *

protocolText: Pharmacokinetics/tissue distribution of GQD constituents in the colons of mice after oral GQD
Type: in vivo, Kunming mice
experimentalConditions: both, Kunming, mouse, colon (homogenate), po, […], colon, mice, oral GQD extract […]; read-out: T1/2 (converted)

molecule	half-life
O=C(O)[C@H]1O[C@@H](Oc2cc3oc(-c4ccccc4)cc(=O)c3c(O)c2O)[C@H](O)[C@@H](O)[C@@H]1O [Baicalin, baicalin]	15 to 19 h
COc1c(O)cc(O)c2c(=O)cc(-c3ccccc3)oc12 [Wogonin, wogonin]	2 to 3 h
COc1ccc2c(c1O)-c1c(O)c(OC)cc3c1[C@H](C2)[N+](C)(C)CC3 [Magnoflorine, magnoflorine]	2.1 h
COc1cc2c(cc1O)CC[n+]1cc3c(OC)c(OC)ccc3cc1-2 [Jatrorrhizine, jatrorrhizine]	5 h
O=c1cc(-c2ccccc2)oc2cc(O)c(O)c(O)c12 [Baicalein, baicalein]	2 to 3 h
O=c1c(-c2ccc(O)cc2)coc2c([C@@H]3O[C@H](CO)[C@@H](O)[C@H](O)[C@H]3O)c(O)ccc12 [Puerarin, puerarin]	1 to 4 h
CC1(C)[C@@H](O)CC[C@]2(C)[C@H]3C(=O)C=C4[C@@H]5C[C@@](C)(C(=O)O)CC[C@]5(C)CC[C@@]4(C)[C@]3(C)CC[C@@H]12 [Glycyrrhetinic acid, glycyrrhetinic acid]	4 to 5 h

* * *

protocolText: Pharmacokinetics/tissue distribution of GQD constituents in the livers of mice after oral GQD
Format: in vivo, Kunming mice
experimentalConditions: both, Kunming, mouse, in vivo; liver, mice, oral GQD extract 6.1 g/kg
observedProperty: Cmax (ng/g)

> print(dat)
                                   compound  endpointresult
1  O=c1c(-c2ccc(O)cc2)coc2cc(O[C@@H]3O[C@H](CO)[C@@H](O)[C@H](O)[C@H]3O)ccc12            54.1

* * *

protocolText: Pharmacokinetics/tissue distribution of GQD constituents in the livers of mice after oral GQD
Format: in vivo, Kunming mice
experimentalConditions: both, Kunming, mouse, liver (homogenate); liver, mice, oral GQD extract 6.1 g/kg
observedProperty: MRT (h)

compound	readoutUnits	endpointResult
COc1ccc2c(c1O)-c1c(O)c(OC)cc3c1[C@H](C2)[N+](C)(C)CC3 [Magnoflorine, magnoflorine]	h	5.3
CC1(C)[C@@H](O[C@H]2O[C@H](C(=O)O)[C@@H](O)[C@H](O)[C@H]2O[C@@H]2O[C@H](C(=O)O)[C@@H](O)[C@H](O)[C@H]2O)CC[C@]2(C)[C@H]3C(=O)C=C4[C@@H]5C[C@@](C)(C(=O)O)CC[C@]5(C)CC[C@@]4(C)[C@]3(C)CC[C@@H]12 [Glycyrrhizic acid, glycyrrhizic acid]	h	2.8
O=c1cc(-c2ccccc2)oc2cc(O)c(O)c(O)c12 [Baicalein, baicalein]	h	4.3

* * *

protocolText: Pharmacokinetics/tissue distribution of GQD constituents in the colons of mice after oral GQD
Assay type: in vivo, Kunming mice
experimentalConditions: both, Kunming, mouse, in vivo, po, […], T1/2
observedProperty: half-life (h)

> print(dat)
                                   compound  readoutunits  endpointresult
1  O=C1C[C@@H](c2ccc(O[C@@H]3O[C@H](CO)[C@@H](O)[C@H](O)[C@H]3O)cc2)Oc2cc(O)ccc21             h            19.5
2  c1c2c(cc3c1OCO3)-c1cc3ccc4c(c3c[n+]1CC2)OCO4             h             4.3

* * *

protocolText: Pharmacokinetics of GQD constituents in the portal vein of mice after oral GQD
Assay type: in vivo, Kunming mice
experimentalConditions: both, Kunming, mouse, in vivo; portal vein plasma, mice, oral GQD extract 6.1 g/kg
observedProperty: MRT (h)

> print(dat)
                                   molecule  endpointresult
1  O=c1c(-c2ccc(O)cc2)coc2cc(O[C@@H]3O[C@H](CO)[C@@H](O)[C@H](O)[C@H]3O)ccc12 [Daidzin, daidzin]               2

* * *

protocolText: Pharmacokinetics of GQD constituents in the portal vein of mice after oral GQD
Type: in vivo, Kunming mice
experimentalConditions: both, Kunming, mouse, in vivo; portal vein plasma, mice, oral GQD extract 6.1 g/kg; read-out: Tmax
observedProperty: Tmax (min)

> print(dat)
                                   molecule  readoutunits  endpointresult
1  O=c1c(-c2ccc(O)cc2)coc2cc(O[C@@H]3O[C@H](CO)[C@@H](O)[C@H](O)[C@H]3O)ccc12 [Daidzin, daidzin]           min              15

* * *

protocolText: Pharmacokinetics/tissue distribution of GQD constituents in the livers of mice after oral GQD
Assay type: in vivo, Kunming mice
experimentalConditions: both, Kunming, mouse, in vivo, po, […]
observedProperty: Tmax (h)

> print(dat)
                                   compound  observedproperty  endpointresult
1         O=c1c(-c2ccc(O)cc2)coc2cc(O)ccc12              Tmax            0.25
2  c1c2c(cc3c1OCO3)-c1cc3ccc4c(c3c[n+]1CC2)OCO4              Tmax               2
3  O=C1C[C@@H](c2ccc(O[C@@H]3O[C@H](CO)[C@@H](O)[C@H](O)[C@H]3O)cc2)Oc2cc(O)ccc21              Tmax               4

* * *

protocolText: Pharmacokinetics of GQD constituents in the systemic circulation of mice after oral GQD
Assay type: in vivo, Kunming mice
experimentalConditions: both, Kunming, mouse, in vivo, po, […], Tmax
observedProperty: Tmax (min)

> print(dat)
                                   compound  readoutunits  endpointresult
1  O=C1C[C@@H](c2ccc(O[C@@H]3O[C@H](CO)[C@@H](O)[C@H](O)[C@H]3O)cc2)Oc2cc(O)ccc21           min              15
2  c1c2c(cc3c1OCO3)-c1cc3ccc4c(c3c[n+]1CC2)OCO4           min              15

* * *

protocolText: Pharmacokinetics of GQD constituents in the portal vein of mice after oral GQD
Format: in vivo, Kunming mice
experimentalConditions: both, Kunming, mouse, in vivo, po, […], Tmax
Description: Fifty-four Kunming mice were randomly divided into nine groups according to body weight and gender (3 male and three female in each group). […] After pretreatment, the concentrations of 19 major constituents of GQD in each sample were measured by the validated LC-MS/MS method (see “2.3”). Then the C-T curves of the constituents in the plasma and the tissue homogenates were respectively drawn and their pharmacokinetic parameters were respectively calculated. […]
Quick reference for Tmax among some compounds
observedProperty: Tmax (min)

> print(dat)
                                   compound  observedproperty  endpointresult
1  O=C1C[C@@H](c2ccc(O[C@@H]3O[C@H](CO)[C@@H](O)[C@H](O)[C@H]3O)cc2)Oc2cc(O)ccc21 [Liquiritin, liquiritin]              Tmax              15
2  c1c2c(cc3c1OCO3)-c1cc3ccc4c(c3c[n+]1CC2)OCO4 [Coptisine, coptisine]              Tmax             240

The values you see were collected from paper PMC9592910.
